Target: T1, IL10Rα and IL2Rγ on human primary cells (CD8 T cells, CD4 T cells, monocytes) (human) (UniProt Q13651)
T1 sequence (looked up) 1: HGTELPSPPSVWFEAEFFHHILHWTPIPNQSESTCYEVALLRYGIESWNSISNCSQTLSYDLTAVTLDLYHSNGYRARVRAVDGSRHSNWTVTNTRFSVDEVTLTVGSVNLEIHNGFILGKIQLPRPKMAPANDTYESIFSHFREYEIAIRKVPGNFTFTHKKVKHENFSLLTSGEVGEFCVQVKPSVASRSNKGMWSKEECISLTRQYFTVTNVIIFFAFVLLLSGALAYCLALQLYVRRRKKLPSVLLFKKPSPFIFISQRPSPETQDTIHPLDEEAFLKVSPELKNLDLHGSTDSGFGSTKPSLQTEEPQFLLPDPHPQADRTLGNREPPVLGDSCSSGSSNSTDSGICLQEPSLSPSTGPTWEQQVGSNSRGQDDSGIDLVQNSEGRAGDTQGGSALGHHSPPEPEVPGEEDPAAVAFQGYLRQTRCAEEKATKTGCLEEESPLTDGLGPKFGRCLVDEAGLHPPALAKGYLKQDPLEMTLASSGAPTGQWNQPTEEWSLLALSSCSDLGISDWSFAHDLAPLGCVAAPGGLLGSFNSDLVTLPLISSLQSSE
T1 sequence (looked up) 2: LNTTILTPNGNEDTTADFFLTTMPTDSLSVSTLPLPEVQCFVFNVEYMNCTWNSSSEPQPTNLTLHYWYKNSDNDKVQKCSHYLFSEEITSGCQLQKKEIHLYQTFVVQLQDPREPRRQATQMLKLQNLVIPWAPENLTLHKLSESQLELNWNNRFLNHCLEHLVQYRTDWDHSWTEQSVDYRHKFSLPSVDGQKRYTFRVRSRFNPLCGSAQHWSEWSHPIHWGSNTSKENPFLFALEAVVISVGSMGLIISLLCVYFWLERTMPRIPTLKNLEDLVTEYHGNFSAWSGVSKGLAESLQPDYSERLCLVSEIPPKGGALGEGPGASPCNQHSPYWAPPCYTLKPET
Test: cell-based or functional assay
Recorded measurements of pSTAT3 (MFI) in CD4 T cells at 0.001 µM, one per entry
Give the quantity in MFI, number only.

hIL10Ra_VHH14-hIL2Rg_VHH19, linker GGSGGS, tag his (bispecific antibody, not shown: small tags and cut ends) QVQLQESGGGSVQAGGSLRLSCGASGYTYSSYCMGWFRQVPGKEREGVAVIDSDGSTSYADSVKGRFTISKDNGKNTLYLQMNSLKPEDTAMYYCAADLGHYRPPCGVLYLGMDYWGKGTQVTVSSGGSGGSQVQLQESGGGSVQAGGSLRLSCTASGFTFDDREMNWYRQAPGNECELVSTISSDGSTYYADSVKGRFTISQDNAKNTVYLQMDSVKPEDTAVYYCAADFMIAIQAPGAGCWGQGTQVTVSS
13900
hIL10Ra_VHH14-hIL2Rg_VHH19, linker GGGS, tag his (bispecific antibody, not shown: small tags and cut ends) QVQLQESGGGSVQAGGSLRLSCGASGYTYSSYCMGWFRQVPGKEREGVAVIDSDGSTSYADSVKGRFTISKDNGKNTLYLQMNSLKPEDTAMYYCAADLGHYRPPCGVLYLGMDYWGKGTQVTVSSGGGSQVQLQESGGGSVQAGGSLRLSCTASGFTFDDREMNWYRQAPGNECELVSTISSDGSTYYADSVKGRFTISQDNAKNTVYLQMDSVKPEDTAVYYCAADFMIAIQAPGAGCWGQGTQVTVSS
12100

Sample hIL10Ra_VHH14-hIL2Rg_VHH19, linker GGGS, tag Fc (Fc fusion, not shown: a dimerising Fc or GST) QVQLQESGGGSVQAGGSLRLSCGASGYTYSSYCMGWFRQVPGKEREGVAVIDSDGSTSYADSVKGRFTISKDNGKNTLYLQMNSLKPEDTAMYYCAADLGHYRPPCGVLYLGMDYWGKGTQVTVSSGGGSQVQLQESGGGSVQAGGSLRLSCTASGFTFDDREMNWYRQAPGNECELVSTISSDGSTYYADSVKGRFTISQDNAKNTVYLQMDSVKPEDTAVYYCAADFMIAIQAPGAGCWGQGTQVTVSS — what was its pSTAT3 (MFI) in CD4 T cells at 0.001 µM?
12600
